Cited source for all entries: paper PMC12455397

- Tested on: differentiated THP1 macrophages (WT)
- MEASUREMENT_PARAMETERS: WT, 12 h; CDDO-Me 0.1 µM; SFN, DMF, 24, 28 10 µM; KI-696 1 µM
Where a name gives a salt, the structure may show the parent alone.
Could you mark each record 1 (yes) if its number of upregulated genes (FC >2.0, p-adj <0.05) falls strictly under 700 genes, and 0 (no) if it equals or exceeds it?

COMPOUND	QUALITATIVE_LABEL
C[S+]([O-])CCCCN=C=S (centres unmarked)	1 (yes)
COc1cc([C@@H](CC(=O)O)c2ccc(C)c(CN3C[C@@H](C)Oc4ccccc4S3(=O)=O)c2)cc2nnn(C)c12	1 (yes)
Cc1cc2c(cc1C(CC(=O)O)c1ccc3ccc(OCC(=O)NC4CCCCCC4)cc3c1)OCCO2 (centres unmarked)	1 (yes)
COC(=O)[C@]12CCC(C)(C)C[C@H]1[C@H]1C(=O)C=C3[C@@]4(C)C=C(C#N)C(=O)C(C)(C)[C@@H]4CC[C@@]3(C)[C@]1(C)CC2	0 (no)
COC(=O)/C=C/C(=O)OC [DMF, dimethyl fumarate]	0 (no)

* * *

- Test system: differentiated THP1 macrophages (WT)
- MEASUREMENT_PARAMETERS: Table S3; THP-1, 12 h
Where a name gives a salt, the structure may show the parent alone.
Listed here: items and their measured IFNGR1 FC.

COMPOUND	IFNGR1 FC
COC(=O)/C=C/C(=O)OC [DMF, dimethyl fumarate]	0,93 fold
Cc1cc2c(cc1C(CC(=O)O)c1ccc3ccc(OCC(=O)NC4CCCCCC4)cc3c1)OCCO2 (stereo not drawn) [Compound 28]	0,64 fold
COC(=O)[C@]12CCC(C)(C)C[C@H]1[C@H]1C(=O)C=C3[C@@]4(C)C=C(C#N)C(=O)C(C)(C)[C@@H]4CC[C@@]3(C)[C@]1(C)CC2 [CDDO-Me, bardoxolone methyl]	0,81 fold
Cc1cc2c(cc1C(CC(=O)O)c1ccc3ccc(OCC(=O)NC4CCCCCC4)cc3c1)OCO2 (stereo not drawn) [Compound 24]	0,63 fold
COc1cc([C@@H](CC(=O)O)c2ccc(C)c(CN3C[C@@H](C)Oc4ccccc4S3(=O)=O)c2)cc2nnn(C)c12 [KI-696]	0,70 fold
C[S+]([O-])CCCCN=C=S (stereo not drawn) [SFN, sulforaphane]	0,63 fold

* * *

- MEASURED_ON: UniProt Q14145
- ASSAY_METHOD_TEXT: Fluorescence polarization (FP) competition assay with Cy5-Nrf2 peptide probe
- MEASUREMENT_PARAMETERS: FP (Ki/nM), Table S2; mean ± SEM, ≥3 individual measurements; NA: not active (measured up to 4 mM)
hey, just use 1.0 if measured Ki is less than 7000 nM, otherwise 0.0

MOLECULE	QUALITATIVE_LABEL
O=C(O)CC(c1ccc2c(c1)OCO2)c1ccc2ccc(OCC(=O)NC3CCCCCC3)cc2c1 (centres unmarked) [Compound 19]	1.0
O=C(O)CCc1ccc2ccc(OCC(=O)Nc3ccccc3)cc2c1 [Compound 8]	0.0
O=C(O)CCc1ccc2ccc(OCC(=O)NC3CCCCCC3)cc2c1 [Compound 7]	1.0
O=C(O)CC(c1ccc2c(c1)OCCO2)c1ccc2ccc(OCC(=O)NC3CCCCC3)cc2c1 (centres unmarked) [Compound 33]	1.0
O=C(O)CCc1ccc2ccc(OCC(=O)NC3CCOCC3)cc2c1 [Compound 5]	0.0
Cc1cc2occc2cc1C(CC(=O)O)c1ccc2ccc(OCC(=O)NC3CCCCCC3)cc2c1 (centres unmarked) [Compound 26]	1.0
Cc1cc2c(cc1C(CC(=O)O)c1ccc3ccc(OCC(=O)NC4CCCCC4)cc3c1)OCCO2 (centres unmarked) [Compound 38]	1.0
Cc1cc2c(cc1C(CC(=O)O)c1ccc3ccc(OCC(=O)NC4CCCCCC4)cc3c1)OCO2 (centres unmarked) [Compound 24]	1.0

* * *

Reported values of GPX4 FC for individual entries
- System: differentiated THP1 macrophages (WT)
- MEASUREMENT_PARAMETERS: Table S3; THP-1, 12 h
Structures can show the parent of a compound that is named as a salt.
ENDPOINT_NAME: GPX4 FC

COMPOUND	MEASURED_ON	REPORTED
Cc1cc2c(cc1C(CC(=O)O)c1ccc3ccc(OCC(=O)NC4CCCCCC4)cc3c1)OCO2 (stereo not drawn)	differentiated THP1 macrophages (WT)	1,13 fold
C[S+]([O-])CCCCN=C=S (stereo not drawn)	differentiated THP1 macrophages (WT)	0,94 fold
COC(=O)/C=C/C(=O)OC [DMF, dimethyl fumarate]	differentiated THP1 macrophages (WT)	1,09 fold
COc1cc([C@@H](CC(=O)O)c2ccc(C)c(CN3C[C@@H](C)Oc4ccccc4S3(=O)=O)c2)cc2nnn(C)c12	differentiated THP1 macrophages (WT)	1,74 fold
Cc1cc2c(cc1C(CC(=O)O)c1ccc3ccc(OCC(=O)NC4CCCCCC4)cc3c1)OCCO2 (stereo not drawn)	differentiated THP1 macrophages (WT)	1,20 fold
COC(=O)[C@]12CCC(C)(C)C[C@H]1[C@H]1C(=O)C=C3[C@@]4(C)C=C(C#N)C(=O)C(C)(C)[C@@H]4CC[C@@]3(C)[C@]1(C)CC2	differentiated THP1 macrophages (WT)	0,91 fold

* * *

- Tested on: differentiated THP1 macrophages (WT)
- MEASUREMENT_PARAMETERS: Table S3; THP-1, 12 h
Structures can show the parent of a compound that is named as a salt.
Items are presented alongside their recorded MMP12 FC.

COMPOUND	MMP12 FC
COc1cc([C@@H](CC(=O)O)c2ccc(C)c(CN3C[C@@H](C)Oc4ccccc4S3(=O)=O)c2)cc2nnn(C)c12 [KI-696]	0,60 fold
Cc1cc2c(cc1C(CC(=O)O)c1ccc3ccc(OCC(=O)NC4CCCCCC4)cc3c1)OCO2 (stereo not drawn) [Compound 24]	0,51 fold
C[S+]([O-])CCCCN=C=S (stereo not drawn) [SFN, sulforaphane]	0,29 fold
Cc1cc2c(cc1C(CC(=O)O)c1ccc3ccc(OCC(=O)NC4CCCCCC4)cc3c1)OCCO2 (stereo not drawn) [Compound 28]	0,53 fold
COC(=O)[C@]12CCC(C)(C)C[C@H]1[C@H]1C(=O)C=C3[C@@]4(C)C=C(C#N)C(=O)C(C)(C)[C@@H]4CC[C@@]3(C)[C@]1(C)CC2 [CDDO-Me, bardoxolone methyl]	0,25 fold
COC(=O)/C=C/C(=O)OC [DMF, dimethyl fumarate]	1,88 fold

* * *

- MEASURED_ON: human Keap1 Kelch (Homo sapiens, UniProt Q14145)
- Sequence (Q14145 321-609): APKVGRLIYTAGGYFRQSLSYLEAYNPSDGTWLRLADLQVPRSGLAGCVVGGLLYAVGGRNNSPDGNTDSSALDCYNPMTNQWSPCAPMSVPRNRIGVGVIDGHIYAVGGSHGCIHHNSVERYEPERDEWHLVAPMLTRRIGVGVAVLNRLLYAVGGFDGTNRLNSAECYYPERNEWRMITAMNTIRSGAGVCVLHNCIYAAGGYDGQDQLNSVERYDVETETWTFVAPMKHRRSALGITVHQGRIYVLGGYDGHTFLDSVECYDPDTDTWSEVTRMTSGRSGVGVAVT
- ASSAY_METHOD_TEXT: Fluorescence polarization (FP) competition assay with Cy5-Nrf2 peptide probe
- MEASUREMENT_PARAMETERS: FP (Ki/nM), Table S2; mean ± SEM, ≥3 individual measurements; NA: not active (measured up to 4 mM)
ENDPOINT_NAME: Ki (nM)

COMPOUND	RESULT_UNIT	REPORTED
O=C(O)CC(c1ccc2c(c1)OCCO2)c1ccc2ccc(OCC(=O)NC3C=CCCC3)cc2c1 (centres unmarked)	nM	20.3
O=C(O)CC(c1cccc(Cl)c1)c1ccc2ccc(OCC(=O)NC3CCCCCC3)cc2c1 (centres unmarked)	nM	53.9
O=C(O)CC(c1ccc2c(c1)OC(F)(F)O2)c1ccc2ccc(OCC(=O)NC3CCCCCC3)cc2c1 (centres unmarked)	nM	33.8
Cc1cc2c(cc1C(CC(=O)O)c1ccc3ccc(OCC(=O)NC4CCCCC4)cc3c1)CCO2 (centres unmarked)	nM	32.4
Cc1cc(C)c(C)c(NC(=O)COc2ccc3ccc(CCC(=O)O)cc3c2)c1C	nM	196000
Cc1cc(C)c(NC(=O)COc2ccc3ccc(CCC(=O)O)cc3c2)c(C)c1	nM	21300
Cc1cc2c(cc1C(CC(=O)O)c1ccc3ccc(OCC(=O)NC4CCCCC4)cc3c1)OCO2 (centres unmarked)	nM	18.1
Cc1cc2c(cc1C(CC(=O)O)c1ccc3ccc(OCC(=O)NC4C=CCCC4)cc3c1)OC(F)(F)O2 (centres unmarked)	nM	16.1
